- TESTED SYSTEM: 5-hydroxytryptamine receptor 2A (Homo sapiens) (UniProt P28223)
- Sequence (P28223 whole entry, looked up): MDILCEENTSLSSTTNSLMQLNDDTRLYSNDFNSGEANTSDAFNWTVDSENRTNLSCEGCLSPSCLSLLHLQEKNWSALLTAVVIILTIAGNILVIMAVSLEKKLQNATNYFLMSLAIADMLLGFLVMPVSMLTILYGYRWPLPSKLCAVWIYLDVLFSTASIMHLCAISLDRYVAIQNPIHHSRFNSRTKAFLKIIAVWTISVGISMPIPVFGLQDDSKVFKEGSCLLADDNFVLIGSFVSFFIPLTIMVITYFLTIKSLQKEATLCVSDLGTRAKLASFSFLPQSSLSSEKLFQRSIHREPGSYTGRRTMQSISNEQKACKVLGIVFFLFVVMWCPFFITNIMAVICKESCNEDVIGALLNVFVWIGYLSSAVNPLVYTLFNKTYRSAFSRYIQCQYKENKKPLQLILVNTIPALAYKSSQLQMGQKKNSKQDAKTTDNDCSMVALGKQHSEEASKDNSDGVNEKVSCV
- PROTOCOL NOTES: 5-hydroxytryptamine receptor 2A (HTR2A) small molecule antagonists, cell-based qHTS assay (AID 1963586); note: nearly all actives have a fitted effect of over 45% in size
- CONDITION CONTEXT: HTR2A-CHO cells, DOI-induced calcium flux, fluorescence; series mostly up to 61.5 µM
Results filed as inconclusive are left out. Active and inactive are the calls of the source. Calls come from the whole dose curve.
Respond with a class label; see active, inactive

CC(=O)c1ccc2c(c1)N(CCCN(C)C)c1ccccc1S2 ... active
CC(CCO)CCCC(C)(C)O (stereo unspecified) ... inactive
CCCCN(CCC(=O)OCC)C(C)=O ... inactive
CCO[C@@H]1O[C@H](C(COCc2ccccc2)OCc2ccccc2)[C@H](OCc2ccccc2)[C@H]1O (stereo partly specified) ... inactive
CCCC(CCC)(C(=O)OCC)C(=O)OCC ... active

Req: Which outcome was entered for the molecule CCOC(=O)C1=NN(c2ccccc2)C(=O)C1 in this test?
Resp: inactive
